System: anti-25-hydroxy vitamin D antibodies (Ab5H10 and Ab2F4)
Protocol description: Cross-reactivity test of the present competitive chemiluminescent ELISA in low BSA buffer
Type: binding, sheep
Setup conditions: test substance 150 ng/mL; OORL = out of range - low, below the detection limit
Measurement kind: Conc., ng/mL Mean (measured 25-hydroxy vitamin D) (ng/mL)
Quick note: give the figure in ng/mL, leave out the unit.

For C=C1/C(=C\C=C2/CCC[C@]3(C)[C@@H]([C@H](C)CCCC(C)(C)O)CC[C@@H]23)C[C@@H](O)C[C@@H]1O [1α,25-Dihydroxy Vitamin D3, 1α,25-dihydroxy vitamin D3] , write its Conc., ng/mL Mean (measured 25-hydroxy vitamin D).
107.1

Find the measured Conc., ng/mL Mean (measured 25-hydroxy vitamin D) of C=C1CC[C@H](O)C/C1=C/C=C1\CCC[C@]2(C)[C@@H]([C@H](C)CCCC(C)(C)O)CC[C@@H]12 [25-Hydroxy vitamin D3, 25-hydroxy vitamin D3] and report it.
104.5

---

Test system: anti-25-hydroxy vitamin D antibodies (Ab5H10 and Ab2F4)
Protocol description: Cross-reactivity test of the present competitive chemiluminescent ELISA in low BSA buffer
Type: binding, sheep
Setup conditions: test substance 100 ng/mL; low BSA buffer
Signal, RLU Mean vs 4000 RLU: less than gives TRUE; not less than gives FALSE.

# TODO verify Signal, RLU Mean < 4000 RLU strictly for this compound: C=C1CC[C@H](O)C/C1=C/C=C1\CCC[C@]2(C)[C@@H]([C@H](C)/C=C/[C@H](C)C(C)C)CC[C@@H]12 [Ergocalciferol (Vitamin D2), ergocalciferol]
FALSE

Lab note: confirm whether the reported Signal, RLU Mean for this compound is below 4000 RLU, equality not counting. compound: C=C1CC[C@H](O)C/C1=C/C=C1\CCC[C@]2(C)[C@@H]([C@H](C)CCCC(C)(C)O)CC[C@@H]12 [25-Hydroxy vitamin D3, 25-hydroxy vitamin D3]
TRUE

Please indicate whether the reported Signal, RLU Mean of C=C1CCC(O)C/C1=C\C=C1\CCCC2(C)C1CCC2C(C)CCC(O)C(C)(C)O (centres unmarked) [24,25-Dihydroxy Vitamin D3, 24,25-dihydroxy vitamin D3] is strictly below 4000 RLU.
FALSE

Dear colleague, could you confirm whether Signal, RLU Mean of C=C1CC[C@H](O)C/C1=C/C=C1\CCC[C@]2(C)[C@@H]([C@H](C)CCCC(C)C)CC[C@@H]12 [Cholecalciferol (Vitamin D3), cholecalciferol] falls below 4000 RLU? Thanks.
FALSE

Dear reviewer, please state whether C=C1/C(=C\C=C2/CCC[C@]3(C)[C@@H]([C@H](C)CCCC(C)(C)O)CC[C@@H]23)C[C@@H](O)C[C@@H]1O [1α,25-Dihydroxy Vitamin D3, 1α,25-dihydroxy vitamin D3] has Signal, RLU Mean strictly beneath 4000 RLU.
TRUE

---

Please go through the items and note down their Vitamin D metabolite cross reactivity, Present Methods.
Test system: anti-25-hydroxy vitamin D antibodies (Ab5H10 and Ab2F4)
Protocol description: Cross-reactivity test of the present competitive chemiluminescent ELISA in low BSA buffer
Assay type: binding, sheep

Look up and state reported Vitamin D metabolite cross reactivity, Present Methods for C=C1CC[C@H](O)C/C1=C/C=C1\CCC[C@]2(C)[C@@H]([C@H](C)/C=C/[C@H](C)C(C)C)CC[C@@H]12 [Ergocalciferol (Vitamin D2), ergocalciferol]
<0.01%

Look up Vitamin D metabolite cross reactivity, Present Methods of C=C1CC[C@H](O)C/C1=C/C=C1\CCC[C@]2(C)[C@@H]([C@H](C)CCCC(C)(C)O)CC[C@@H]12 [25-Hydroxy vitamin D3, 25-hydroxy vitamin D3] and report it.
100%

Please report Vitamin D metabolite cross reactivity, Present Methods for the following compound: C=C1/C(=C\C=C2/CCC[C@]3(C)[C@@H]([C@H](C)CCCC(C)(C)O)CC[C@@H]23)C[C@@H](O)C[C@@H]1O [1α,25-Dihydroxy Vitamin D3, 1α,25-dihydroxy vitamin D3]
70%

Specify reported Vitamin D metabolite cross reactivity, Present Methods for the compound shown: C=C1CC[C@H](O)C/C1=C/C=C1\CCC[C@]2(C)[C@@H]([C@H](C)/C=C/[C@H](C)C(C)(C)O)CC[C@@H]12 [25(OH) D2, 25-hydroxy vitamin D2]
110%

Tell us which Vitamin D metabolite cross reactivity, Present Methods value is on record for C=C1CC[C@H](O)C/C1=C/C=C1\CCC[C@]2(C)[C@@H]([C@H](C)CCCC(C)C)CC[C@@H]12 [Cholecalciferol (Vitamin D3), cholecalciferol]
<0.01%

---

Test system: anti-25-hydroxy vitamin D antibodies (Ab5H10 and Ab2F4)
Protocol description: Cross-reactivity test of the present competitive chemiluminescent ELISA in low BSA buffer
Type: binding, sheep
Setup conditions: test substance 150 ng/mL; OORL = out of range - low, below the detection limit
Measurement kind: Conc., ng/mL Mean (measured 25-hydroxy vitamin D)

Compound	Endpoint result
C=C1CC[C@H](O)C/C1=C/C=C1\CCC[C@]2(C)[C@@H]([C@H](C)/C=C/[C@H](C)C(C)C)CC[C@@H]12 [Ergocalciferol (Vitamin D2), ergocalciferol]	OORL
C=C1CCC(O)C/C1=C\C=C1\CCCC2(C)C1CCC2C(C)CCC(O)C(C)(C)O (stereo not drawn) [24,25-Dihydroxy Vitamin D3, 24,25-dihydroxy vitamin D3]	OORL
C=C1CC[C@H](O)C/C1=C/C=C1\CCC[C@]2(C)[C@@H]([C@H](C)CCCC(C)C)CC[C@@H]12 [Cholecalciferol (Vitamin D3), cholecalciferol]	OORL
